These measurements were taken from the supplement of paper PMC10567573.

So I've got a bunch of variants here, and I need their protein stability index values.
B1: EMD (parent)
chain: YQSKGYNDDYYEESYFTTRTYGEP

Variants of: B1
Assay: protein stability index of a GFP-peptide fusion (GPS, HEK-293T) (PSI 1-6); higher = more stable;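 note: lentivirally expressed fusions sorted by FACS into six bins by GFP to DsRed ratio, PSI derived from sequencing read proportions per bin multiplied by bin number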
Settings: c terminus: a fixed tail appended
Answer with a bare number; do not write a unit.

Requested read-out: protein stability index. Entry: R19M 2.35

Requested read-out: protein stability index. Entry: Y1P 3.63

Requested read-out: protein stability index. Entry: Y10M 2.12

Requested read-out: protein stability index. Entry: Y15E 3.41

Requested read-out: protein stability index. Entry: Y15L 2

Requested read-out: protein stability index. Entry: G22R 2.28

Requested read-out: protein stability index. Entry: G22F 1.77

Requested read-out: protein stability index. Entry: Y21V 2.93

Requested read-out: protein stability index. Entry: Y11I 2.19

Requested read-out: protein stability index. Entry: Y6K 3.05

Requested read-out: protein stability index. Entry: Y21R 2.46

Requested read-out: protein stability index. Entry: Y6C 2.65

Requested read-out: protein stability index. Entry: T17V 2.13

Requested read-out: protein stability index. Entry: T18A 2.31

Requested read-out: protein stability index. Entry: D9P 1.71

Requested read-out: protein stability index. Entry: E12F 2.11

Requested read-out: protein stability index. Entry: K4H 1.97

Requested read-out: protein stability index. Entry: T18W 2.02

Requested read-out: protein stability index. Entry: S3A 2.23

Requested read-out: protein stability index. Entry: T18E 2.44

Requested read-out: protein stability index. Entry: P24C 2.48

Requested read-out: protein stability index. Entry: Y11N 2.98
